Data provenance: patent US6653127B1

molecular target: T1, 5A/5B (P8P8') substrate DTEDVVCC*SMSYTWTG-K
T1 chain: DTEDVVCCSMYTWTGK
attributeMeasured: kcat/Km (M⁻¹ s⁻¹)
Kindly provide the numeric value in M⁻¹ s⁻¹ only, without the unit symbol.

Would you kindly share the measured kcat/Km for His-NS4A21-32-GSGS-NS33-181/I17K (protein) MGSSHHHHHHSSGLVPRGSHMGSVVIVGRIILSGSGSITAYSQQTRGLLGCKITSLTGRDKNQVEGEVQVVSTATQSFLATCVNGVCWTVYHGAGSKTLAGPKGPITQMYTNVDQDLVGWQAPPGARSLTPCTCGSSDLYLVTRHADVIPVRRRGDSRGSLLSPRPVSYLKGSSGGPLLCPSGHAVGIFRAAVCTRGVAKAVDFVPVESMETTMRS ?
14000

I'd like to know its kcat/Km. The protein in question is His-NS31-181 + NS4A Peptide (non-covalent complex) (protein) chain 1: MAPITAYSQQTRGLLGCIITSLTGRDKNQVEGEVQVVSTATQSFLATCVNGVCWTVYHGAGSKTLAGPKGPITQMYTNVDQDLVGWQAPPGARSLTPCTCGSSDLYLVTRHADVIPVRRRGDSRGSLLSPRPVSYLKGSSGGPLLCPSGHAVGIFRAAVCTRGVAKAVDFVPVESMETTMR chain 2: KKGSVVIVGRIVLSGKPAIIPKK
500

Quick check: kcat/Km of His-NS4A21-32-GSGS-NS33-181/I18K (protein) MGSSHHHHHHSSGLVPRGSHMGSVVIVGRIILSGSGSITAYSQQTRGLLGCIKTSLTGRDKNQVEGEVQVVSTATQSFLATCVNGVCWTVYHGAGSKTLAGPKGPITQMYTNVDQDLVGWQAPPGARSLTPCTCGSSDLYLVTRHADVIPVRRRGDSRGSLLSPRPVSYLKGSSGGPLLCPSGHAVGIFRAAVCTRGVAKAVDFVPVESMETTMRS ?
8000
